Cited source: the supplement of paper PMC9112550

Test system: Escherichia coli TOP10;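 also: peptides expressed intracellularly from a pBAD plasmid library in pooled LB shake-flask culture, induced with 0.3% L-arabinose, DNA abundance read by NGS, three biological replicates, DESeq2 with apeglm shrinkage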
METHOD SUMMARY: shrunken log2 fold change of peptide-encoding DNA abundance (4.5 h post-induction vs induction); higher = less antimicrobial activity (less host growth inhibition)
ASSAY CONTEXT: time post-induction: 4.5 h; library: site-saturation at positions 5, 18, 19, 20
The sequences listed here are annotated with their shrunken log2 fold change.
PROPERTY LABEL: shrunken log2 fold change

[
  {
    "ITEM SEQUENCE": "RRIRYRPPRLPRPRPRPDTQPRP",
    "RECORDED MEASUREMENT": -0.00672
  },
  {
    "ITEM SEQUENCE": "RRIRTRPPRLPRPRPRPNFMPRP",
    "RECORDED MEASUREMENT": -0.401
  },
  {
    "ITEM SEQUENCE": "RRIRMRPPRLPRPRPRPYEDPRP",
    "RECORDED MEASUREMENT": 0.477
  },
  {
    "ITEM SEQUENCE": "RRIRQRPPRLPRPRPRPWMCPRP",
    "RECORDED MEASUREMENT": 0.00702
  },
  {
    "ITEM SEQUENCE": "RRIRERPPRLPRPRPRPPTTPRP",
    "RECORDED MEASUREMENT": 0.322
  },
  {
    "ITEM SEQUENCE": "RRIRDRPPRLPRPRPRPNEWPRP",
    "RECORDED MEASUREMENT": -0.00174
  },
  {
    "ITEM SEQUENCE": "RRIRYRPPRLPRPRPRPFRKPRP",
    "RECORDED MEASUREMENT": -0.00664
  },
  {
    "ITEM SEQUENCE": "RRIRGRPPRLPRPRPRPSYIPRP",
    "RECORDED MEASUREMENT": -0.458
  },
  {
    "ITEM SEQUENCE": "RRIRPRPPRLPRPRPRPYTWPRP",
    "RECORDED MEASUREMENT": -0.446
  },
  {
    "ITEM SEQUENCE": "RRIRKRPPRLPRPRPRPYDYPRP",
    "RECORDED MEASUREMENT": -0.0386
  },
  {
    "ITEM SEQUENCE": "RRIRFRPPRLPRPRPRPEMVPRP",
    "RECORDED MEASUREMENT": -0.143
  },
  {
    "ITEM SEQUENCE": "RRIRVRPPRLPRPRPRPCKMPRP",
    "RECORDED MEASUREMENT": -0.159
  },
  {
    "ITEM SEQUENCE": "RRIRVRPPRLPRPRPRPKWHPRP",
    "RECORDED MEASUREMENT": -0.123
  },
  {
    "ITEM SEQUENCE": "RRIRWRPPRLPRPRPRPFPGPRP",
    "RECORDED MEASUREMENT": -0.0199
  },
  {
    "ITEM SEQUENCE": "RRIRYRPPRLPRPRPRPWDCPRP",
    "RECORDED MEASUREMENT": -0.00865
  },
  {
    "ITEM SEQUENCE": "RRIRIRPPRLPRPRPRPAQIPRP",
    "RECORDED MEASUREMENT": 0.0984
  },
  {
    "ITEM SEQUENCE": "RRIRSRPPRLPRPRPRPLRAPRP",
    "RECORDED MEASUREMENT": 0.858
  },
  {
    "ITEM SEQUENCE": "RRIRWRPPRLPRPRPRPMPGPRP",
    "RECORDED MEASUREMENT": 0.0623
  },
  {
    "ITEM SEQUENCE": "RRIRPRPPRLPRPRPRPVCAPRP",
    "RECORDED MEASUREMENT": 0.396
  },
  {
    "ITEM SEQUENCE": "RRIRRRPPRLPRPRPRPHHEPRP",
    "RECORDED MEASUREMENT": 0.0234
  },
  {
    "ITEM SEQUENCE": "RRIRARPPRLPRPRPRPWKKPRP",
    "RECORDED MEASUREMENT": -0.0663
  },
  {
    "ITEM SEQUENCE": "RRIRRRPPRLPRPRPRPYQIPRP",
    "RECORDED MEASUREMENT": 0.022
  },
  {
    "ITEM SEQUENCE": "RRIRQRPPRLPRPRPRPSSIPRP",
    "RECORDED MEASUREMENT": -0.0146
  },
  {
    "ITEM SEQUENCE": "RRIRHRPPRLPRPRPRPSPHPRP",
    "RECORDED MEASUREMENT": -0.39
  },
  {
    "ITEM SEQUENCE": "RRIRERPPRLPRPRPRPTHDPRP",
    "RECORDED MEASUREMENT": -0.141
  },
  {
    "ITEM SEQUENCE": "RRIRNRPPRLPRPRPRPPMPPRP",
    "RECORDED MEASUREMENT": 0.0312
  },
  {
    "ITEM SEQUENCE": "RRIRRRPPRLPRPRPRPRRWPRP",
    "RECORDED MEASUREMENT": 0.386
  },
  {
    "ITEM SEQUENCE": "RRIRQRPPRLPRPRPRPEFMPRP",
    "RECORDED MEASUREMENT": -0.0743
  },
  {
    "ITEM SEQUENCE": "RRIRFRPPRLPRPRPRPVEVPRP",
    "RECORDED MEASUREMENT": -1.6
  },
  {
    "ITEM SEQUENCE": "RRIRQRPPRLPRPRPRPVYQPRP",
    "RECORDED MEASUREMENT": -0.022
  },
  {
    "ITEM SEQUENCE": "RRIRERPPRLPRPRPRPIWNPRP",
    "RECORDED MEASUREMENT": -0.0842
  },
  {
    "ITEM SEQUENCE": "RRIRKRPPRLPRPRPRPEKRPRP",
    "RECORDED MEASUREMENT": 0.81
  }
]
